Parameter: Avg (Chk1 S345). Scope: all listed entries.
Test system: HCT116
Run description: Reverse Phase Protein Analysis (RPPA)
Format: cell-based, human
Recorded conditions: % change from DMSO (matched cell line)
Parameter: Avg (Chk1 S345) (%)

| Molecule | Tested on | Value measured |
| --- | --- | --- |
| Cc1cnc(Nc2ccc(F)cc2Cl)nc1-c1c[nH]c(C(=O)N[C@H](CO)c2cccc(Cl)c2)c1 [Vx-11e] | HCT116 | −16.49 |
| O=C(Nc1ccc2[nH]nc(-c3ccncc3)c2c1)[C@@H]1CCN(CC(=O)N2CCN(c3ccc(-c4ncccn4)cc3)CC2)C1 [SCH772984] | HCT116 | −18.51 |
| CC(C)Nc1cc(-c2c[nH]c(C(=O)N[C@H](CO)c3cccc(Cl)c3)c2)c(Cl)cn1 [BVD-523] | HCT116 | −39.65 |
| Cn1nccc1Nc1nccc(-c2ccn([C@H](CO)c3ccc(Cl)c(F)c3)c(=O)c2)n1 [GDC-0994] | HCT116 | −18.77 |
